# target entity: T1, Recombinant human CD137/His (human, UniProt Q07011 24-186)
# T1 construct: Analyte of the SPR assay; also called 4-1BB; TNFRSF9; not shown: His tag
# measurement notes: SPR (Biacore), antibody captured on anti-human Fc, human CD137/His as analyte, 1:1 fit
# Description: This example illustrates binding affinities of exemplary anti-CD137 antibodies disclosed herein. Affinities were determined using surface plasmon resonance (Biacore). Briefly, anti-human Fc antibody (GE, BR-1008-39) was immobilized on CM5 sensor chip to approximately 1000 RU using standard NHS/EDC coupling methodology. Antibodies (about 10 μg/ml) were captured for 60 s at a flow rate 10 μl/min Recombinant human CD137/His was serially diluted in running buffer (HBS-EP). […]
property measured: Ka (M⁻¹)
Answer in M⁻¹, number only, no unit symbol.

Guide cases for Ka, answers given:
1. anti-CD137 antibody MSB7 (antibody, V domains shown, Variant of D6 with the same light chain variable domain) VH: QMQLVQSGAEVKKPGASVKVSCKASGYSFSGYYMHWVRQAPGQGLEWMGWVNPMSGGTNYAQKFQGRVTITRDTSASTAYMELSSLRSEDTAVYYCAREGMAMRLELDKWGQGTLVTVSS VL: SYELTQPPSVSVAPGKTARITCGGNNIGSKSVHWYQQKPGQAPVLVIYYDSDRPSGIPERFSGSNSGNTATLTISRVEAGDEADYYCQVWDSSSVVFGGGTQLTVL; 6.03e+07
2. anti-CD137 antibody MSA11 (antibody, V domains shown, Variant of D6 with the same light chain variable domain) VH: QMQLVQSGAEVKKPGASVKVSCKASGYSFTGYYMHWVRQAPGQGLEWMGWVNPKSGGTNYAQKFQGRVTITRDTSASTAYMELSSLRSEDTAVYYCAREGWARRIDLDEWGQGTLVTVSS VL: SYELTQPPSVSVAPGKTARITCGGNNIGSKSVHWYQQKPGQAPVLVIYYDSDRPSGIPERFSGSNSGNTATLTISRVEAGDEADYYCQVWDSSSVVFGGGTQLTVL; 2.13e+07

Pending binder:
Dear colleague, I am looking for the recorded Ka of the following binder: anti-CD137 antibody MSH1 (antibody, V domains shown, Variant of D6 with the same light chain variable domain) VH: QMQLVQSGAEVKKPGASVKVSCKASGYNFGGYYMHWVRQAPGQGLEWMGWVNPHSGGTNYAQKFQGRVTITRDTSASTAYMELSSLRSEDTAVYYCAREGEAWGLDLDLWGQGTLVTVSS VL: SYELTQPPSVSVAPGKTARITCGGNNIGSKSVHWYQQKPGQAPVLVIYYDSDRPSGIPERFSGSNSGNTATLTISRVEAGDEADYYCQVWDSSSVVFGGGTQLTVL
1.14e+07
